# MEASUREMENT TARGET: NUDT7 (Homo sapiens)
# Construct: residues 14-235, E. coli, pNIC28-Bsa4, N-terminal His6 tag removed by TEV, construct 26672 Da
# Sequence (P0C024 14-235): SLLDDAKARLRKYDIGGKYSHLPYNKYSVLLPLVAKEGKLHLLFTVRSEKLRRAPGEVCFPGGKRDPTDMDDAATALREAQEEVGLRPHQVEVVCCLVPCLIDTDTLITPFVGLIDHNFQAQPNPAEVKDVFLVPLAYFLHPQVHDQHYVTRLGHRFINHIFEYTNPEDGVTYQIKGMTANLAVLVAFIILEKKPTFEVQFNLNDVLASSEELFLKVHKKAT
# Set-up: Intact protein LC/MS covalent labelling, fragments in pools of five, 200 uM each, 4 °C
# ASSAY CONTEXT: 24 h, 4 °C, pool of five; 200 µM; covalent
We begin with a simple list: items and their reported NUDT7.
Give the value as a plain number.

Q) I'm curious: which NUDT7 was measured for Cc1cccc(C(=O)O)c1NC(=O)CCl [PCM-0102167] tested on NUDT7 (Homo sapiens)?
A) 0

Q) I'm curious: which NUDT7 was measured for O=C(CCl)NCC12CC3CC(CC(Br)(C3)C1)C2 [PCM-0102819] tested on NUDT7 (Homo sapiens)?
A) 0.05

Q) I'm curious: which NUDT7 was measured for N#Cc1ccc(NC(=O)CCl)cc1 [PCM-0102875] tested on NUDT7 (Homo sapiens)?
A) 0.14

Q) I'm curious: which NUDT7 was measured for CC(C)NC(=O)NC(=O)CCl [PCM-0102504] tested on NUDT7 (Homo sapiens)?
A) 0

Q) I'm curious: which NUDT7 was measured for O=C(CCl)N1CCSC1c1ccccc1F (centres unmarked) [PCM-0102293] tested on NUDT7 (Homo sapiens)?
A) 0.83

Q) I'm curious: which NUDT7 was measured for O=C(CCl)NC(=O)NC1CCCC1 [PCM-0103001] tested on NUDT7 (Homo sapiens)?
A) 0

Q) I'm curious: which NUDT7 was measured for CC1CCC2(CC1)NC(=O)N(NC(=O)CCl)C2=O (centres unmarked) [PCM-0102666] tested on NUDT7 (Homo sapiens)?
A) 0

Q) I'm curious: which NUDT7 was measured for O=C(CCl)Nc1cccc(C(F)(F)F)c1 [PCM-0102290] tested on NUDT7 (Homo sapiens)?
A) 0.12
